The reader will find reported Kd values listed item by item below.
# system: (NANP)6 (Plasmodium falciparum)
# experimental protocol: SPR, antibody on chip
Give a bare numeral; the unit pM is implied.

Challenge: Give the measured Kd of AB-007074 (antibody, V domains shown) VH: QMQLVESGGGVVQPGRSLRLSCAASGFTFSTYAMHWVRQAPGQGLQWVAVISYHSTNKYYEDSVRGRFTISRDNSKNTLYLQMNSLRAEDTAVYYCARDGYSSSFFDFWGQGTLVTVSS VL: DIQMTQSPSTLSASVGDRVTITCRASQSISRWLAWYQQQPGKAPKLLMSGASVLESGVPSRFSGSGSGTEFTLTISSLQPDDFATYYCQHYNSYYVTFGQGTKVEIK .
Response given: 665

Challenge: Next binder: AB-007034 (antibody, V domains shown) VH: QVQLVESGGGVVQPGRSLRLSCAASGFTFSTYAMHWVRQAPGQGLEWVAVISYHSTNKYYADSVRGRFTISRDNSKNTLYLQMNSLRAEDTAVYYCARDGYSSSFFDFWGQGTLVTVSS VL: DIQMTQSPSTLSASVGDRVTITCRASQSISRWLAWYQQQPGKAPKLLISGASVLESGVPSRFSGSGSGTEFTLTISSLQPDDFATYYCQHYNSYFVTFGQGTKVEIK
Response given: 932

Challenge: Next binder: AB-007043 (antibody, V domains shown) VH: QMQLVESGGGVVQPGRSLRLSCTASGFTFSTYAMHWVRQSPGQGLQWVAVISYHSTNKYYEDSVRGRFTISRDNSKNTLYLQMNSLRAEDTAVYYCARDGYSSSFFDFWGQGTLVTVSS VL: DIQMTQSPSTLSASVGDRVAITCRASQSISRWLAWYQQQPGKAPKLLMSGASVLEDGVPSRFSGSGSGTEFTLTISSLQPDDFATYYCQHYNSYFVTFGQGTKVEIK
Response given: 1110

Challenge: Next binder: AB-007038 (antibody, V domains shown) VH: QMQLVESGGGVVQPGRSLRLSCTASGFTFSTYAMHWVRQSPGQGLQWVAVISYHSTNKYYEDSVRGRFTISRDNSKNTLYLQMNSLRAEDTAVYYCARDGYSSSFFDYWGQGTLVTVSS VL: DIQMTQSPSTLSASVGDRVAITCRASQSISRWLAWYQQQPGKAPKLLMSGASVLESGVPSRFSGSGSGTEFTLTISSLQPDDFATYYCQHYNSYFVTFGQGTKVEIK
Response given: 28.1

Next binder, Kd to be filled in.
Challenge: Give the measured Kd of AB-007042 (antibody, V domains shown) VH: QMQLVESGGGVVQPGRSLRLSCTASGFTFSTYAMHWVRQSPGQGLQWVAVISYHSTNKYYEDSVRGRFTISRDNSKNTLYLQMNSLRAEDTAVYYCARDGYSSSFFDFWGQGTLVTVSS VL: DIQMTQSPSTLSASVGDRVAITCRASQDISRWLAWYQQQPGKAPKLLMSGASVLESGVPSRFSGSGSGTEFTLTISSLQPDDFATYYCQHYNSYFVTFGQGTKVEIK .
Response given: 998
